# Test system: human RNase H2
# experiment-description: Antisense inhibition of human RNase H2 expression, Northern blot
# Assay type: cell-based
# Set-up: concentration or dose not given beside the values
# condition-parameters: RNase H2 expression, Northern blot
# From the text: Total RNA was isolated from different human cell lines (ATCC, Rockville, Md.) using the guanidine isothiocyanate method (21). Ten μg of total RNA was separated on a 1.2% agarose/formaldehyde gel and transferred to Hybond-N+ (Amersham, Arlington Heights, Ill.) followed by fixing using UV crosslinker (Strategene, La Jolla, Calif.). The premade multiple tissue Northern Blot membranes were also purchased from Clontech (Palo Alto, Calif.). […]
Strand notation (5' to 3'): a small letter for the sugar, then the base; units joined by * are phosphorothioate-linked, units joined directly phosphodiester-linked; [ ] holds rarer units or linkages, { } end groups; capitals alone tell only the bases. e = 2'-O-(2-methoxyethyl) (MOE); [5mC] = 5-methylcytosine; d = 2'-deoxy (DNA)
Quick reference for % of control among some sequences

{"sequence-chain": "CACAGGCGAACTCAGGCGAC (all C 5-methyl, all phosphorothioate, sugars by position not given here; further chemistry not fully specified) [ISIS 21947, 2′-O-methoxyethyl gapmer, 8-nucleotide deoxy gap, phosphorothioate backbone, targeted to human RNase H2]", "u": "%", "% of control": 37}
{"sequence-chain": "ACTCCAGGCCGCGTTCCAGG (antisense eA*e[5mC]*eT*e[5mC]*e[5mC]*eA*dG*dG*d[5mC]*d[5mC]*dG*d[5mC]*dG*dT*eT*e[5mC]*e[5mC]*eA*eG*eG) [ISIS 21959, 2′-O-methoxyethyl gapmer, 8-nucleotide deoxy gap, phosphorothioate backbone, targeted to human RNase H2]", "u": "%", "% of control": 18}
{"sequence-chain": "CCACCTTGGCACAGATGCTG (all C 5-methyl, all phosphorothioate, sugars by position not given here; further chemistry not fully specified) [ISIS 21954, 2′-O-methoxyethyl gapmer, 8-nucleotide deoxy gap, phosphorothioate backbone, targeted to human RNase H2]", "u": "%", "% of control": 23}

* * *

# Tested on: human RNase H2
# experiment-description: Antisense inhibition of human RNase H2 expression, Northern blot
# Assay type: cell-based
# Parameters: concentration or dose not given beside the values
# condition-parameters: RNase H2 expression, Northern blot
Strand notation (5' to 3'): a small letter for the sugar, then the base; units joined by * are phosphorothioate-linked, units joined directly phosphodiester-linked; [ ] holds rarer units or linkages, { } end groups; capitals alone tell only the bases. e = 2'-O-(2-methoxyethyl) (MOE); [5mC] = 5-methylcytosine; d = 2'-deoxy (DNA)
Values of % inhibition greater than or equal to 70% map to True; values below map to False.

{"sequence-chain": "CGGTGTCCACGAATACCTGG (all C 5-methyl, all phosphorothioate, sugars by position not given here; further chemistry not fully specified) [ISIS 21951, 2′-O-methoxyethyl gapmer, 8-nucleotide deoxy gap, phosphorothioate backbone, targeted to human RNase H2]", "assigned-class": "True"}
{"sequence-chain": "CGCGCCTGGTATGTCTCTGG (all C 5-methyl, all phosphorothioate, sugars by position not given here; further chemistry not fully specified) [ISIS 21952, 2′-O-methoxyethyl gapmer, 8-nucleotide deoxy gap, phosphorothioate backbone, targeted to human RNase H2]", "assigned-class": "True"}
{"sequence-chain": "TTTTGTCTTGGGATCATTGG (eT*eT*eT*eT*eG*eT*d[5mC]*dT*dT*dG*dG*dG*dA*dT*e[5mC]*eA*eT*eT*eG*eG) [ISIS 21956]", "assigned-class": "False"}
{"sequence-chain": "CAGTTTCTCCACGAATTGCC (antisense e[5mC]*eA*eG*eT*eT*eT*d[5mC]*dT*d[5mC]*d[5mC]*dA*d[5mC]*dG*dA*eA*eT*eT*eG*e[5mC]*e[5mC]) [ISIS 21955, 2′-O-methoxyethyl gapmer, 8-nucleotide deoxy gap, phosphorothioate backbone, targeted to human RNase H2]", "assigned-class": "False"}
{"sequence-chain": "GGTAGAGGGCATCTGCTTTG (eG*eG*eT*eA*eG*eA*dG*dG*dG*d[5mC]*dA*dT*d[5mC]*dT*eG*e[5mC]*eT*eT*eT*eG) [ISIS 21953]", "assigned-class": "False"}
{"sequence-chain": "ACTCCAGGCCGCGTTCCAGG (antisense eA*e[5mC]*eT*e[5mC]*e[5mC]*eA*dG*dG*d[5mC]*d[5mC]*dG*d[5mC]*dG*dT*eT*e[5mC]*e[5mC]*eA*eG*eG) [ISIS 21959, 2′-O-methoxyethyl gapmer, 8-nucleotide deoxy gap, phosphorothioate backbone, targeted to human RNase H2]", "assigned-class": "True"}
